Listed below: Antifol + LV + FU values for each entry.
# System: HT29 human colon adenocarcinoma cells
Structures can show the parent of a compound that is named as a salt.

Report Antifol + LV + FU for `Cc1nc(N)nc(N)c1N1CCN(c2ccc(C(=O)NN)cc2)CC1` please.
33% of control

Report Antifol + LV + FU for `CC(=O)c1ccc(N2CCN(c3c(C)nc(N)nc3N)CC2)cc1` please.
42% of control

Report Antifol + LV + FU for `CC(=O)c1ccc(N2CCN(c3c(C)nc(N)nc3N)CC2)cc1F` please.
40% of control

Report Antifol + LV + FU for Cc1nc(N)nc(N)c1N1CCN(c2ccc(/C=N/OCCN)cc2)CC1 [Example 12, dihydrochloride] please.
27% of control
